ASSAY INFO: Inhibition of GABA-gated chloride channel (unknown origin)
Design: species or system Homo sapiens
QUANTITY: pIC50
Please report pIC50 as the negative decimal logarithm of the molar concentration, giving only the number.

The recorded pIC50 for Cc1nnc(C)n1-c1ccc(O[C@H]2c3cc(Cl)cc(Cl)c3C[C@@H]2N2CC[C@@H](O)C2)c(F)c1.Cl is 4.92

====

TARGET: Sodium/hydrogen exchanger 3 (Rattus norvegicus)
Sequence (P26433 whole entry): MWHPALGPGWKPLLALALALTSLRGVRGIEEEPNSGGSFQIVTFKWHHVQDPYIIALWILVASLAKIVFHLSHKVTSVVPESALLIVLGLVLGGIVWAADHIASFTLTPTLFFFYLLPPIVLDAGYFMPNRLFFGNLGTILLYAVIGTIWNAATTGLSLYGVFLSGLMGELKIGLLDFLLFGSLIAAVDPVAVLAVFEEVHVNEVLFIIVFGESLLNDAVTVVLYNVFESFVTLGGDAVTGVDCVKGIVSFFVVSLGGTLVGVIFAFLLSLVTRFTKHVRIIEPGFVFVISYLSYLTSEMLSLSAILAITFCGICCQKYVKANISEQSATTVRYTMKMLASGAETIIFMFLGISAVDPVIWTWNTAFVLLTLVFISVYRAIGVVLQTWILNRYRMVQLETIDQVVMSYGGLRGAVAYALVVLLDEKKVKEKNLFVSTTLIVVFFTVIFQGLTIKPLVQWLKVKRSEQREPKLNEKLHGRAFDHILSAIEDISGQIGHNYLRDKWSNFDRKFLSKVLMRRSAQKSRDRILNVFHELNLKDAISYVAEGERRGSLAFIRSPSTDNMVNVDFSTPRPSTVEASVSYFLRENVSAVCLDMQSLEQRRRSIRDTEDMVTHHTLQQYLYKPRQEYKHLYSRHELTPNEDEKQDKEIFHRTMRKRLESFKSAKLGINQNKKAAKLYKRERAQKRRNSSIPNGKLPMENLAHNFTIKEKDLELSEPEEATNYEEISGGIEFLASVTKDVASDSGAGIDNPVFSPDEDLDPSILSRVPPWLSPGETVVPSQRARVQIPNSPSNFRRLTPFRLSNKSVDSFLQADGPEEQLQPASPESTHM
ASSAY INFO: Inhibition of rat NHE3 expressed in LAP1 cell assessed as intracellular pH recovery measured for 2 mins by CECF-AM dye based FLIPR assay
QUANTITY: IC50 (µM)
// units = µM; emit number, no label

Query Cc1nnc(C)n1-c1ccc(O[C@H]2c3cc(Cl)cc(Cl)c3C[C@@H]2N2CC[C@@H](O)C2)c(F)c1.Cl on Sodium/hydrogen exchanger 3 (Rattus norvegicus); IC50 returned: 0.0102
